The measurements presented in this section are drawn from PubChem BioAssay (Tox21).

- assayProcedure: qHTS assay to identify small molecule antagonists of the thyroid receptor (TR) signaling pathway (AID 743065); also: nearly all actives have a fitted effect of over 55% in size
- settings: GH3.TRE-Luc, T3-stimulated luciferase inhibition, 23.5 h; series mostly up to 70.3 µM
Inconclusive results are not listed. The source made the active and inactive calls. Calls follow the shape of the dose curve; as a rule, active = well fitted inhibition curve with a large enough effect in the repeat runs; inconclusive = weak or mixed curves; inactive = no such curve, though single readings can be large or run the other way.
Classes used: True = active, False = inactive

{"columns": ["compound", "category"],
 "data": [
  ["CN(C)CCCSc1ccccc1NC(=O)/C=C/c1ccccc1", "True"],
  ["O=C1OC(=O)C2CCCCC12 (configuration not stated)", "False"],
  ["N[C@H]1CN(c2c(F)cc3c(=O)c(C(=O)O)cn(C4C[C@H]4F)c3c2Cl)CC12CC2 (some centres not stated)", "False"],
  ["O=C(O)CNC(=O)c1ccc([N+](=O)[O-])cc1", "False"],
  ["CC(=O)CC(C)C", "False"],
  ["CC(C)(CC(=O)O)C(=O)O", "False"],
  ["C=C1CC[C@H]2C[C@@H]1C2(C)C", "False"],
  ["CCCCCOC(=O)CCCCC", "False"],
  ["CC(C)c1cc2c(cc1S(=O)(=O)O)[C@@]1(C)CCC[C@@](C)(C(=O)O)[C@@H]1CC2", "False"],
  ["N=C(N)c1ccccc1", "False"],
  ["CCOC(=O)Nc1ccc(NCc2ccc(F)cc2)nc1N", "False"],
  ["CCCCCSCCCCC", "False"],
  ["O=C(O)CCCl", "False"],
  ["C=CCS(=O)(=O)O", "False"],
  ["CC(=O)N(CC(O)CO)c1c(I)c(C(=O)NCCO)c(I)c(C(=O)NCC(O)CO)c1I (configuration not stated)", "False"],
  ["NS(=O)(=O)c1cc(C(=O)O)cc(N2CCCC2)c1Oc1ccccc1", "False"],
  ["O=C[C@H](O)[C@@H](O)[C@H](O)[C@H](O)CO", "False"],
  ["CCC=O", "False"],
  ["CS(=O)(=O)O", "False"],
  ["C[C@@H]1CCN(C(=O)[C@H](CCCN=C(N)N)NS(=O)(=O)c2cccc3c2NC[C@H](C)C3)[C@@H](C(=O)O)C1", "False"],
  ["CN1CCCC1", "False"],
  ["CCCCC(CC)COC(=O)c1ccccc1O (configuration not stated)", "False"],
  ["CCCc1cc(C(N)=S)ccn1", "False"],
  ["CCCC(=O)O[C@]1(C(=O)CO)CC[C@H]2[C@@H]3CCC4=CC(=O)CC[C@]4(C)[C@H]3[C@@H](O)C[C@@]21C", "False"],
  ["CN1CCN(c2cc3c(cc2F)c(=O)c(C(=O)O)cn3-c2ccc(F)cc2)CC1", "False"],
  ["CC(C)NC(=O)NC(C)C", "False"],
  ["O=C1CCCCCCCCCCCN1", "False"],
  ["O=C(O)c1ccccc1OP(=O)(O)O", "False"],
  ["Cn1c(N)c(N=O)c(=O)n(C)c1=O", "False"],
  ["CCOC(C)(C)C", "False"],
  ["OC1CCCCC1c1ccccc1 (configuration not stated)", "False"],
  ["CCCCOCCOCCOCCCC", "False"],
  ["CC(C)OC(=O)c1ccccc1", "False"],
  ["CC(=O)OCC(CCn1cnc2cnc(N)nc21)COC(C)=O", "False"],
  ["O=c1[nH]c(=O)n([C@H]2C[C@H](O)[C@@H](CO)O2)cc1I", "False"],
  ["OC[C@]1(O)OC[C@@H](O)[C@H](O)[C@@H]1O", "False"],
  ["OCCOc1ccc(OCCO)cc1", "False"],
  ["CCCCCCOC(=O)CCCCC(=O)OCCCCCC", "False"],
  ["CCCN(CCC)CCc1cccc2c1CC(=O)N2", "False"],
  ["Nc1cc(=O)[nH]c(N)n1", "False"],
  ["CC1=CC(C)C(C=O)CC1 (configuration not stated)", "False"],
  ["CCCCCCCCCCCCN(CCCCCCCCCCCC)CCCCCCCCCCCC", "False"],
  ["CCCCCCCCS(=O)(=O)Cl", "False"],
  ["CO[Si](CCCOCC1CO1)(OC)OC (configuration not stated)", "False"],
  ["CCOC(=O)c1c(C)n(C)c2ccc(O)cc12", "False"],
  ["CCN(Cc1ccncc1)C(=O)C(CO)c1ccccc1 (configuration not stated)", "False"],
  ["COc1cc(C(=O)N2CCCCCCC2)cc(OC)c1OC", "False"],
  ["CC/C=C\\CCOC(C)=O", "False"],
  ["Cc1c(NC(C)C)c(=O)n(-c2ccccc2)n1C", "False"],
  ["Cc1[nH]c(=O)c(C#N)cc1-c1ccc2nccn2c1", "False"],
  ["Cc1cc2c(cc1S(N)(=O)=O)S(=O)(=O)CCC2", "False"],
  ["CCOC(=O)C(=O)OCC", "False"]
]}

====

- targetUnderTest: Cytochrome P450 1A2 (Homo sapiens) (UniProt P05177)
- Sequence (P05177 whole entry, looked up): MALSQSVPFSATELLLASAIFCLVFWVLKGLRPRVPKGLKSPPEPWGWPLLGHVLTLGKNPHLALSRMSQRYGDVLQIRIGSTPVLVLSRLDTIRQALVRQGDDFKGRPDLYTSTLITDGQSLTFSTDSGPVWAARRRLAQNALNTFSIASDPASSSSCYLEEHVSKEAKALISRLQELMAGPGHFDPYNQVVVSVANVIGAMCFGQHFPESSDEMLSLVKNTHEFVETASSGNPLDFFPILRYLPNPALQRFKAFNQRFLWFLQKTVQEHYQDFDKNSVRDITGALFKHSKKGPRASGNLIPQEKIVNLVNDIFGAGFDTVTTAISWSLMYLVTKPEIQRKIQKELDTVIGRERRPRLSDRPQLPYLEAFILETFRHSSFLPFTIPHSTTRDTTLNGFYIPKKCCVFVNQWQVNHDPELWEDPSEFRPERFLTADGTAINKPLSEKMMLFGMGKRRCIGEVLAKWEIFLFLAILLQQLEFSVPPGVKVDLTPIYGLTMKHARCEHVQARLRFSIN
- assayProcedure: Cytochrome P450 Family 1 Subfamily A Member 2 (CYP1A2) small molecule antagonists: luciferase reporter qHTS assay (AID 1671199); also: nearly all actives have a fitted effect of over 50% in size
- settings: P450-Glo CYP1A2 enzyme, luciferin luminescence, 1 h; series mostly up to 53 µM
Records with an inconclusive call do not appear. Calls of active or inactive are those of the source. Calls come from the whole dose curve; as a rule, active = well fitted inhibition curve with a large enough effect in the repeat runs; inconclusive = weak or mixed curves; inactive = no such curve, though single readings can be large or run the other way.
Outcomes: TRUE (active), FALSE (inactive)

{"columns": ["molecule", "targetUnderTest", "category"],
 "data": [
  ["O=C1OC(=O)C2CCCCC12 (stereo unspecified)", "Cytochrome P450 1A2 (Homo sapiens) (UniProt P05177)", "FALSE"],
  ["CCN(CC)CCNC(=O)c1cc(S(C)(=O)=O)ccc1OC", "Cytochrome P450 1A2 (Homo sapiens) (UniProt P05177)", "FALSE"],
  ["COc1ccc2c(c1)c(CC(=O)OCC(=O)O)c(C)n2C(=O)c1ccc(Cl)cc1", "Cytochrome P450 1A2 (Homo sapiens) (UniProt P05177)", "FALSE"],
  ["CCOC(=O)c1ccc(C)cc1", "Cytochrome P450 1A2 (Homo sapiens) (UniProt P05177)", "FALSE"],
  ["C[C@@H]1CCN(C(=O)[C@H](CCCN=C(N)N)NS(=O)(=O)c2cccc3c2NC[C@H](C)C3)[C@@H](C(=O)O)C1", "Cytochrome P450 1A2 (Homo sapiens) (UniProt P05177)", "FALSE"],
  ["C=CCOCC(CC)(CO)COCC=C", "Cytochrome P450 1A2 (Homo sapiens) (UniProt P05177)", "TRUE"],
  ["COc1ccc(CCN(C)CCCC(C#N)(c2cc(OC)c(OC)c(OC)c2)C(C)C)cc1OC (stereo unspecified)", "Cytochrome P450 1A2 (Homo sapiens) (UniProt P05177)", "FALSE"],
  ["Cc1ccc(=O)n(-c2ccccc2)c1", "Cytochrome P450 1A2 (Homo sapiens) (UniProt P05177)", "FALSE"],
  ["CCc1cccc2c(CCO)c[nH]c12", "Cytochrome P450 1A2 (Homo sapiens) (UniProt P05177)", "TRUE"],
  ["CCCCOCCOCCOCCCC", "Cytochrome P450 1A2 (Homo sapiens) (UniProt P05177)", "FALSE"],
  ["CCCN1CCCC[C@H]1C(=O)Nc1c(C)cccc1C", "Cytochrome P450 1A2 (Homo sapiens) (UniProt P05177)", "FALSE"]
]}

====

- assayProcedure: qHTS assay to identify small molecule antagonists of the thyroid receptor (TR) signaling pathway - cell viability counter screen (AID 743064); also: nearly all actives have a fitted effect of over 50% in size
- settings: GH3.TRE-Luc viability, CellTiter-Fluor, 24 h; series mostly up to 70.3 µM
Records with an inconclusive call do not appear. The source made the active and inactive calls. Calls follow the shape of the dose curve; as a rule, active = well fitted cell-killing curve with a large enough effect in the repeat runs; inconclusive = weak or mixed curves, or effect the other way; inactive = no such curve, though single readings can be large or run the other way.
Possible outcomes: TRUE (active), FALSE (inactive)

{"columns": ["molecularString", "category"],
 "data": [
  ["O=C[C@H](O)[C@@H](O)[C@H](O)[C@H](O)CO", "FALSE"],
  ["O=C(O)CCCl", "FALSE"],
  ["C[N+](C)(C)CCCCCC[N+](C)(C)C", "FALSE"],
  ["COc1ccc2c(c1)c(CC(=O)OCC(=O)O)c(C)n2C(=O)c1ccc(Cl)cc1", "FALSE"],
  ["COC(=O)[C@@H](N)Cc1ccc(O)c(O)c1", "TRUE"],
  ["CCCCCCCCCCCCN(CCCCCCCCCCCC)CCCCCCCCCCCC", "FALSE"],
  ["CCCc1cc(C(N)=S)ccn1", "FALSE"]
]}

====

- targetUnderTest: Aryl hydrocarbon receptor (Homo sapiens) (UniProt P35869)
- Sequence (P35869 whole entry, looked up): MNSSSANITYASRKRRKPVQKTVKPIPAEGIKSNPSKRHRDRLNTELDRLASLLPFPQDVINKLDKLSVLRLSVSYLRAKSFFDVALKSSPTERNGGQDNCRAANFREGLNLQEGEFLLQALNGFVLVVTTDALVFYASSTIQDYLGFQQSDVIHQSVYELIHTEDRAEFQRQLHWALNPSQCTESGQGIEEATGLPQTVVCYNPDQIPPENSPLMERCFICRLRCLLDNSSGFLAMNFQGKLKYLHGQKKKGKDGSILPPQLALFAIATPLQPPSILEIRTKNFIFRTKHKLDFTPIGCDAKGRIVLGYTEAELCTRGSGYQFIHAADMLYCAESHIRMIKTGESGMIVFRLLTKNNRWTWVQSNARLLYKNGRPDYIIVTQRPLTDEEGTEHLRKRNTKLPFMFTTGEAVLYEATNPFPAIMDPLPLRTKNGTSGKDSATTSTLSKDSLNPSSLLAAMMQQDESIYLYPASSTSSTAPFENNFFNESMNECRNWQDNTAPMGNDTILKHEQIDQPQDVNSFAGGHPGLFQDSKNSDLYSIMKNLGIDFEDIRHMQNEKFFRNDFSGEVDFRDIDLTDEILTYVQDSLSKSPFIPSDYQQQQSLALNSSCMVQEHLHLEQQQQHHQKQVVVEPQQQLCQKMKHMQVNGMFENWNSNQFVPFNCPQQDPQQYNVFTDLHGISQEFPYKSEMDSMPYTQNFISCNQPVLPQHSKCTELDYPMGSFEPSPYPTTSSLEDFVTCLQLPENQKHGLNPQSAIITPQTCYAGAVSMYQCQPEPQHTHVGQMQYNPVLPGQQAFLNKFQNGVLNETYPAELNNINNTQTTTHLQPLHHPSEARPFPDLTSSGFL
- assayProcedure: qHTS assay to identify small molecule that activate the aryl hydrocarbon receptor (AhR) signaling pathway (AID 743085); also: nearly all actives have a fitted effect of over 15% in size;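 as to activation: HG2L7.5c1 human HepG2 liver cells with stably integrated DRE-driven firefly reporter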
- settings: HepG2 AhR-luc (HG2L7.5c1), luciferase, 24 h; series mostly up to 70.3 µM
Results filed as inconclusive are left out. Activity calls are given as the source filed them. Calls come from the whole dose curve; as a rule, active = well fitted activation curve with a large enough effect in the repeat runs; inconclusive = weak or mixed curves; inactive = no such curve, though single readings can be large or run the other way.
Classes used: active, inactive

{"columns": ["compound", "category"],
 "data": [
  ["Nc1nc2c(ncn2COC(CO)CO)c(=O)[nH]1", "inactive"],
  ["CCC(C)C1CCCCC1=O (stereo unspecified)", "inactive"],
  ["COc1ccc2c(c1)c(CC(=O)OCC(=O)O)c(C)n2C(=O)c1ccc(Cl)cc1", "inactive"],
  ["NS(=O)(=O)c1ccc(C(=O)O)cc1", "inactive"],
  ["CC(C)OC(=O)c1ccccc1", "inactive"],
  ["Cc1cc2c(cc1S(N)(=O)=O)S(=O)(=O)CCC2", "inactive"],
  ["CCCCCCCCCCCCCCCCC", "inactive"],
  ["O=C(O)CN(CCOCCOCCN(CC(=O)O)CC(=O)O)CC(=O)O", "inactive"],
  ["CC/C=C\\CCOC(C)=O", "inactive"],
  ["CCOC(=O)c1c(C)n(C)c2ccc(O)cc12", "active"],
  ["CC(C)NC(=O)NC(C)C", "inactive"],
  ["CCCCCCCCS(=O)(=O)Cl", "inactive"],
  ["CC(=O)OCC(CCn1cnc2cnc(N)nc21)COC(C)=O", "inactive"],
  ["c1ccc(CC2=NCCN2)cc1", "inactive"],
  ["Cc1ccc(Cl)cc1Cl", "inactive"],
  ["O=C(CCCN1CCC(O)(c2cccc(C(F)(F)F)c2)CC1)c1ccc(F)cc1", "inactive"],
  ["Nc1c[n+](N2CCOCC2)no1", "inactive"],
  ["O=C(O)c1ccccc1OP(=O)(O)O", "inactive"],
  ["CCCCC/C=C\\CCC=O", "inactive"],
  ["N[C@H](C(=O)O)c1ccc(O)cc1", "inactive"],
  ["NS(=O)(=O)c1cc2c(cc1Cl)NC(C1CC3C=CC1C3)NS2(=O)=O (stereo unspecified)", "inactive"]
]}
